# test: Response of test reagent pools to osmolality, conductivity and pH adjusters
# Type: physicochemical
# statedConditions: pH adjuster added to working concentration reagent
resultType: ▴ pH/gm
Returns: the value as a bare number; no unit string appended.

Exercise: Quote ▴ pH/gm reported for O=P([O-])(O)O.[Na+] [Sodium Phosphate Mono] please.
Key: −0.14

Exercise: Identify measured ▴ pH/gm corresponding to Cl [6N Hydrochloric Acid]
Key: −0.16

====

Give measured Osmolality change per gram of adjuster for each item. Keep answers brief.
# test: Response of test reagent pools to osmolality, conductivity and pH adjusters
# Format: physicochemical
# statedConditions: pH adjuster added to working concentration reagent

Exercise: Tell me Osmolality change per gram of adjuster reported for c1c[nH]cn1
Key: +24.9 mOsm/kg/gm

Exercise: Answer with reported Osmolality change per gram of adjuster of O=P([O-])(O)O.[Na+] [Sodium Phosphate Mono]
Key: +12.0 mOsm/kg/gm

Exercise: State its Osmolality change per gram of adjuster: Cl [6N Hydrochloric Acid]
Key: +7.0 mOsm/kg/gm

Exercise: Tell us which Osmolality change per gram of adjuster value is on record for [Na+].[OH-] [50% Sodium Hydroxide]
Key: +13.7 mOsm/kg/gm

Origin of the recorded values: patent US11835532B2
